biological target: FLT3 (Homo sapiens); assay: RBC HotSpot Kinase Assay, FLT3; assay type: biochemical; design: purchased Reaction Biology (RBC HotSpot); details: isolated kinase enzyme, 33P-ATP, P81 filter-binding
Sequence (P36888 27-993): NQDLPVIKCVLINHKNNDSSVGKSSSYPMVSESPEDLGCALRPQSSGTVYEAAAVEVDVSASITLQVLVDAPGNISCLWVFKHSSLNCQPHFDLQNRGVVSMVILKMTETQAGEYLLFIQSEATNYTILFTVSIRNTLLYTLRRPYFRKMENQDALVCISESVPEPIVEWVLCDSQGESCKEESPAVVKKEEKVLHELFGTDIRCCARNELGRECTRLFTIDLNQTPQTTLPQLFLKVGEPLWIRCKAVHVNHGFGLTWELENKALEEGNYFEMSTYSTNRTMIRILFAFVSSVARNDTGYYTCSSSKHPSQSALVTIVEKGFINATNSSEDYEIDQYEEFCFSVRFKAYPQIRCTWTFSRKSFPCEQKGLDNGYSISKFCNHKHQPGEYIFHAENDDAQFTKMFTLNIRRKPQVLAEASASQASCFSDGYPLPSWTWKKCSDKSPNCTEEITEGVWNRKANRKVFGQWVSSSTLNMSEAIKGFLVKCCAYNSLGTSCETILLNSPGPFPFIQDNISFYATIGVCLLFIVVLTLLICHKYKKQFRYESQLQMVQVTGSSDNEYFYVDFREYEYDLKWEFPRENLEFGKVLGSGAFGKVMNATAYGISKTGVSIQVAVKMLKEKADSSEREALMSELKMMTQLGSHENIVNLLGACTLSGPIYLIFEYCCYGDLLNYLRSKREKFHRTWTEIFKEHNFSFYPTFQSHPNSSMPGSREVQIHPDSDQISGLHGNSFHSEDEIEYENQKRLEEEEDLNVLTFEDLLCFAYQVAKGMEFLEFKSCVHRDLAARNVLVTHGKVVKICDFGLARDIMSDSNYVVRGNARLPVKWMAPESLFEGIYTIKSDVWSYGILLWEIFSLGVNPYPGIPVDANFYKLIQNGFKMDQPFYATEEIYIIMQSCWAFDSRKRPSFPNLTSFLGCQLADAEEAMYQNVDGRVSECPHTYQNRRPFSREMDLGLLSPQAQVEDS
pIC50: −log10 of the molar value.
METRIC: pIC50

[[record]]
molecule = "F[C@H]1CCNC[C@@H]1Nc1cncc(-c2cnc3cc(OC4CC4)c(C4CC4)nn23)n1 [Compound 13a]"
measured_value = "> 9.30"

[[record]]
molecule = "COc1cc2ncc(-c3ccnc(N[C@@H]4CCCNC4)n3)n2nc1C1CCC1 [Compound 78a]"
measured_value = "> 9.30"

[[record]]
molecule = "COc1cc2ncc(-c3nc(N[C@H]4CNCC[C@@H]4F)ncc3F)n2nc1C1CC(F)(F)C1 [Compound 49a]"
measured_value = "> 9.30"


###

molecular target: UniProt:Q9NWZ3; experiment: Reaction Biology NanoBRET target engagement assay in HEK-293 cells, IRAK4; assay type: cell-based; conditions: live HEK-293 cells transfected with Kinase-NanoLuc fusion, 1 hour
Sequence (Q9NWZ3 whole entry, the tested form may be a part): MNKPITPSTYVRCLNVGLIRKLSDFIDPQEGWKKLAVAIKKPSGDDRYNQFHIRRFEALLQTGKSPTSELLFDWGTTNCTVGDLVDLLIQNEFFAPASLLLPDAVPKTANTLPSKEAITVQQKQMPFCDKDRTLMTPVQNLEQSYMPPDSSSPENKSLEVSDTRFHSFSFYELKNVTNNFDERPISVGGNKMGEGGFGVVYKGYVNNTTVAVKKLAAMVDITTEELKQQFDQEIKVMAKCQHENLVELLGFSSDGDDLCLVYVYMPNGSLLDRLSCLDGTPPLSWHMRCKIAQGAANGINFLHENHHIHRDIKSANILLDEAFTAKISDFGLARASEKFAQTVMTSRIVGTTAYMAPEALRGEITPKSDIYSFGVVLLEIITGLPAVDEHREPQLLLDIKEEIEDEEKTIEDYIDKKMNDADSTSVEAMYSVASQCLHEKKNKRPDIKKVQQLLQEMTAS
pIC50: −log10 of the molar value.
METRIC: pIC50

[[record]]
molecule = "CC(C)(O)c1ccc2ncc(-c3nc(N[C@@H]4CCCNC4)ncc3F)n2c1 [Compound 48a]"
measured_value = 8.30

[[record]]
molecule = "COc1cc2ncc(-c3nc(N[C@H]4CNC[C@@H]4F)ncc3F)n2nc1N1CCCS1(=O)=O [Compound 111a]"
measured_value = 7.47

[[record]]
molecule = "COc1cc2ncc(-c3nc(N[C@H]4CNCC[C@@H]4F)ncc3F)n2nc1C1CC(F)(F)C1 [Compound 49a]"
measured_value = "> 9.30"

[[record]]
molecule = "COc1cc2ncc(-c3nc(N[C@H]4CNCC[C@@H]4F)ncc3F)n2nc1C1COC1 [Compound 92a]"
measured_value = "> 9.30"

[[record]]
molecule = "CC(O)(c1ccc2ncc(-c3ccnc(N[C@@H]4CCCNC4)n3)n2c1)C(F)(F)F (single isomer, unassigned) [Compound 23a]"
measured_value = "> 9.30"

[[record]]
molecule = "COc1cc2ncc(-c3nc(N[C@H]4CNCC[C@@H]4F)ncc3F)n2nc1N1CCCS1(=O)=O [Compound 112a]"
measured_value = "> 9.30"


###

tested on: MOLM14 D835Y cells; test: MOLM14 D835Y cell viability assay (Cell Titer Glo); type: cell-based; conditions: Homo sapiens, MOLM-14, 48 h, cell viability, Cell Titer Glo, 48 hours; read-out: MOLM14 D835Y IC50
pIC50: −log10 of the molar value.
Recorded pIC50 for the following molecules
METRIC: pIC50

[[record]]
molecule = "COc1cc2ncc(-c3nc(N[C@H]4CNC[C@@H]4F)ncc3F)n2nc1C1CCC1 [Compound 52a]"
experimental_system = "MOLM14 D835Y cells"
measured_value = 8.52

[[record]]
molecule = "COc1cc2ncc(-c3nc(N[C@H]4CNCC[C@@H]4F)ncc3F)n2nc1C(C)(C)O [Compound 45a]"
experimental_system = "MOLM14 D835Y cells"
measured_value = 7.82

[[record]]
molecule = "COc1cc2ncc(-c3nc(N[C@@H]4CCCNC4)ncc3F)n2nc1C1CC1"
experimental_system = "MOLM14 D835Y cells"
measured_value = 9.00

[[record]]
molecule = "FC(F)COc1cc2ncc(-c3cncc(N[C@H]4CNCC[C@@H]4F)n3)n2nc1C1CC1"
experimental_system = "MOLM14 D835Y cells"
measured_value = 8.00


Source of measurements: patent US20260226048A1
